Quick list: IC90 per entry.
Tested on: HAP1 MTAP-deleted cell line
Protocol description: SDMA in-cell western assay, HAP1 MTAP-deleted
Condition label: Homo sapiens, HAP1, read-out: Hap1 MTAP deleted IC90, SDMA in-cell western assay, HAP1 MTAP-deleted cell line

In [3]: df
Out[3]:
                                   molecule  property  data_value
0  C[C@@H]1CN(C(=O)C(=O)Nc2cnc(N)c3cn[nH]c23)[C@@H](c2ccccc2)CC1(F)F (racemic) [Compound 216]      IC90     < 75 nM

Ask | Form field - read-out: IC90; system: HAP1 MTAP-deleted cell line; submitted item: Nc1ncc(NC(=O)C(=O)N2CCCCC2c2cccc(N3CCCC3)c2)c2[nH]ncc12 (single isomer, unassigned) [Compound 213]
Reply | > 125 nM

Ask | Same again, this time with C[C@H]1CC[C@H](C2CCCCO2)N(C(=O)C(=O)Nc2cnc(N)c3cn[nH]c23)C1 (single isomer, unassigned) [Compound 232]
Reply | < 75 nM

Ask | Same again, this time with C[C@H]1CC[C@H](c2ccnc(OC3CC3)c2)N(C(=O)C(=O)Nc2cnc(N)c3cn[nH]c23)C1 (racemic) [Compound 247]
Reply | < 75 nM

Ask | Same again, this time with C[C@H]1CC[C@H](c2ccc(CCN(C)C)cc2)N(C(=O)C(=O)Nc2cnc(N)c3cn[nH]c23)C1 (racemic) [Compound 263]
Reply | < 75 nM

Ask | Same again, this time with COc1cc([C@H]2CC[C@H](C)CN2C(=O)C(=O)Nc2cnc(N)c3cn[nH]c23)cc(C)n1 [Compound 219]
Reply | < 75 nM

Ask | Same again, this time with C[C@H]1CC[C@H]([C@@H]2CCOC2)N(C(=O)C(=O)Nc2cnc(N)c3cn[nH]c23)C1 (single isomer, unassigned) [Compound 237]
Reply | > 125 nM

Ask | Same again, this time with CCn1nccc1[C@H]1CC[C@@H](C)CN1C(=O)C(=O)Nc1cnc(N)c2cn[nH]c12 (stereo in doubt) [Compound 285]
Reply | > 125 nM

Ask | Same again, this time with Nc1ncc(NC(=O)C(=O)N2[C@@H](c3ccccc3)CCC[C@H]2C(F)(F)F)c2[nH]ncc12 (racemic) [Compound 245]
Reply | < 75 nM
